FYI, the data here is from the RNAGym collection of RNA variant scans (doi:10.7554/elife.90254).

B1: LINE1-full (parent)
chain: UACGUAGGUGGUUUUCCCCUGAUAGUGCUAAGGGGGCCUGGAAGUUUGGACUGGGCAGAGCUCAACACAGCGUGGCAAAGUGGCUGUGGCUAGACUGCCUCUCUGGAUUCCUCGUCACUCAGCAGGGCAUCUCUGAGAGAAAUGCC

Variants of: B1
assay-procedure: self-cleavage, relative activity (ratio to wild type); higher = more cleavage; in vitro, sequencing; the parent is a self-cleaving ribozyme
Just so you know, the groups by self-cleavage go like this: bottom: < 0.2; middle: ≥ 0.2 and < 1; top: ≥ 1

>>> class("G54A A142G")
"middle"
>>> class("U20C G35A")
"top"
>>> class("A22G A94C")
"bottom"
>>> class("A42U U87A")
"bottom"
>>> class("G58A A138G")
"bottom"
>>> class("G36A U81G")
"top"
>>> class("G58U G114A")
"bottom"
>>> class("A6G U104A")
"middle"
>>> class("G48U U109A")
"top"
>>> class("A117U G137C")
"top"
>>> class("C28U G54A")
"middle"
>>> class("C37A U108C")
"top"
>>> class("A57U A79U")
"bottom"
>>> class("C90G U102C")
"bottom"
>>> class("C37G A59G")
"bottom"
>>> class("A6U A65G")
"middle"
>>> class("U13C C37G")
"top"
>>> class("A2U U52A")
"middle"
>>> class("C99A A124G")
"middle"
>>> class("A64G U104C")
"middle"
>>> class("C118U A141G")
"top"
>>> class("A57U U96A")
"middle"
>>> class("A107C U109C")
"top"
>>> class("A30U C37G")
"middle"
>>> class("U81G G122U")
"top"
>>> class("G55C A142G")
"bottom"
>>> class("U96A A121G")
"bottom"
>>> class("C3U G7C")
"bottom"
>>> class("C28U U81C")
"top"
>>> class("U46A U102C")
"top"
>>> class("C37G U47A")
"top"
>>> class("G8A U96C")
"bottom"
>>> class("C3U A67U")
"bottom"
>>> class("A2G A77U")
"middle"
>>> class("U73A A92G")
"bottom"
>>> class("G32C A59U")
"middle"
>>> class("U26A A129U")
"top"
>>> class("A24G U39G")
"middle"
>>> class("A67G U73C")
"middle"
>>> class("A30G C84A")
"middle"
>>> class("A43G G72U")
"top"
>>> class("U12A U119C")
"top"
>>> class("G32A U39A")
"top"
>>> class("A59U U87C")
"middle"
>>> class("U20C U52A")
"middle"
>>> class("G97A A107G")
"bottom"
>>> class("U46A U132A")
"top"
>>> class("U96C U108G")
"bottom"
>>> class("A67U U85A")
"bottom"
>>> class("A94U A124U")
"middle"
